B1: Tyrosine-protein kinase Lck, residues 63 to 120; numbered along this chain, P06239 (parent)
chain: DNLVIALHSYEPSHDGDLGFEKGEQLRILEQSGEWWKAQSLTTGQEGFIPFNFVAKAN

Variants of: B1
Test: abundance fitness (aPCA) (normalised: wild type 0, dead -1); higher = more abundant; growth selection in yeast, the domain comes from the species named
Details: Homo sapiens
// not satisfied strictly below -0.2 in abundance fitness; satisfied otherwise

Please review the entries below; each comes with its answer.
I49Y : not satisfied
D1T : not satisfied
Q31W : satisfied
E24F : not satisfied
S9N : satisfied

Q: Does the reported abundance fitness for G23L fall at or above the -0.2 mark?
Ans: not satisfied

Q: Does the reported abundance fitness for T43K fall at or above the -0.2 mark?
Ans: not satisfied

Q: Does the reported abundance fitness for Q45H fall at or above the -0.2 mark?
Ans: not satisfied

Q: Does the reported abundance fitness for L41I fall at or above the -0.2 mark?
Ans: satisfied

Q: Does the reported abundance fitness for I28M fall at or above the -0.2 mark?
Ans: not satisfied

Q: Does the reported abundance fitness for E46I fall at or above the -0.2 mark?
Ans: satisfied

Q: Does the reported abundance fitness for E46N fall at or above the -0.2 mark?
Ans: not satisfied

Q: Does the reported abundance fitness for F53N fall at or above the -0.2 mark?
Ans: not satisfied

Q: Does the reported abundance fitness for Y10M fall at or above the -0.2 mark?
Ans: not satisfied

Q: Does the reported abundance fitness for A55Q fall at or above the -0.2 mark?
Ans: satisfied

Q: Does the reported abundance fitness for E24Q fall at or above the -0.2 mark?
Ans: not satisfied

Q: Does the reported abundance fitness for E46H fall at or above the -0.2 mark?
Ans: not satisfied

Q: Does the reported abundance fitness for A55T fall at or above the -0.2 mark?
Ans: satisfied

Q: Does the reported abundance fitness for L26M fall at or above the -0.2 mark?
Ans: satisfied

Q: Does the reported abundance fitness for H14V fall at or above the -0.2 mark?
Ans: satisfied

Q: Does the reported abundance fitness for F51E fall at or above the -0.2 mark?
Ans: satisfied

Q: Does the reported abundance fitness for A55I fall at or above the -0.2 mark?
Ans: satisfied

Q: Does the reported abundance fitness for S9V fall at or above the -0.2 mark?
Ans: not satisfied
